Target: GST-Rok-C97-191 (Bacillus subtilis subsp. subtilis str. …, UniProt O34857 97-191)
Sequence: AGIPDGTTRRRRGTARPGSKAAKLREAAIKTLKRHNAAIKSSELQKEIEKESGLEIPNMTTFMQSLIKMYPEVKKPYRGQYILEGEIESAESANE
Assay: protein binding microarray; Rok is a gene silencer of Bacillus subtilis; high values mean tight binding
Settings: protein: recombinant; tags: GST (pTH5325, pDEST15-Magic modified); dsDNA, one strand shown
Over roughly 33,000 sequences, “e-score” has its median near -0.038; the highest 2% begin near 0.33. This is one part of a sample in which the highest values are shown more often than they occur.
Measured binding signal accompanies every entry in the list below.
Units required after the number.

• GTGCTATA = 0.202 E-score
• TAATACTA = 0.401 E-score
• CACAAGTG = -0.00102 E-score
• GTACTATA = 0.436 E-score
• AATCTAGT = 0.282 E-score

Moving on to the next sequence.
Exercise: Give the reported binding signal for "AGTAGAAA" (system: GST-Rok-C97-191 (Bacillus subtilis subsp. subtilis str. …, UniProt O34857 97-191)).
Solution: 0.448 E-score
